Molecular target: T1, E. coli β clamp (β subunit of DNA polymerase III, dnaN gene product), N-tagged (E. coli, UniProt P0A988 1-366)
T1 construct: The dnaN gene was cloned in pET15b and expressed in BL21 E. coli; also called β ring; β protein; not shown: N-terminal tag from the pET15b vector (N-tagged protein, enriched on Ni-NTA)
T1 sequence (P0A988 whole entry): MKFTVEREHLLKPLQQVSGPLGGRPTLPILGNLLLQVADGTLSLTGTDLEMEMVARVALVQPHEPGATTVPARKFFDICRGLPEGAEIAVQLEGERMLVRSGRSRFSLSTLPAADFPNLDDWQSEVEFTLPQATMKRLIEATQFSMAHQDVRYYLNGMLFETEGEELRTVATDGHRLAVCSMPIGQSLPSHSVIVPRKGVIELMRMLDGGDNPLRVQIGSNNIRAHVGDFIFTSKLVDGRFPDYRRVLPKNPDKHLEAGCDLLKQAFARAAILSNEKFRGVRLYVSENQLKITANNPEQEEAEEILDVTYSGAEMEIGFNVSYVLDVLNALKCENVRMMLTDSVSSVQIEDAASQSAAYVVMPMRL
Assay: SPR competition on immobilised P1; ΔG = -RT ln Ki
ΔG values for the binders below.

| binder | ΔG |
| --- | --- |
| H-RQLVLGL-OH (Used free in solution as challenger and immobilised on the SPR chip; the way of immobilisation is not described; also called natural Cter heptamer; natural heptapeptide) [P1, natural C-terminal heptapeptide of E. coli DNA polymerase IV (RQLVLGL)] | -7.06 kcal/mol |
| QLDLF [P5 (QLDLF)] | -6.87 kcal/mol |
| Ac-QLDLF-OH (also called Ac-Gln-Leu-Asp-Leu-Phe-OH) [P6 (AcQLDLF)] | -8.22 kcal/mol |
| E. coli DNA polymerase IV (enzyme, Called the whole polymerase / the full PolIV enzyme; construct and tags not described; also called PolIV; Pol IV) MRKIIHVDMDCFFAAVEMRDNPALRDIPIAIGGSRERRGVISTANYPARKFGVRSAMPTGMALKLCPHLTLLPGRFDAYKEASNHIREIFSRYTSRIEPLSLDEAYLDVTDSVHCHGSATLIAQEIRQTIFNELQLTASAGVAPVKFLAKIASDMNKPNGQFVITPAEVPAFLQTLPLAKIPGVGKVSAAKLEAMGLRTCGDVQKCDLVMLLKRFGKFGRILWERSQGIDERDVNSERLRKSVGVERTMAEDIHHWSECEAIIERLYPELERRLAKVKPDLLIARQGVKLKFDDFQQTTQEHVWPRLNKADLIATARKTWDERRGGRGVRLVGLHVTLLDPQMERQLVLGL | -9.09 kcal/mol |
